METHOD_DESCRIPTION: Evaluation of pharmacokinetics in mice
Format: in vivo, CD-1 mice
PROTOCOL_CONDITIONS: mouse, po; male CD-1 mice, intragastric administration, 20 mg/kg, plasma; read-out: Area under curve AUC0-last
RECORDED_METRIC: AUC(0-t) (µM·h)
Give bare numbers, in µM·h.

Ask | Which AUC(0-t) value is on record for O=C(O)CCc1ccc2c(c1)nc(Nc1ccc(OC(F)(F)F)cc1)n2[C@@H]1CCCc2ccccc21 [Example 6] ?
Reply | 307

====

METHOD_DESCRIPTION: Evaluation of pharmacokinetics in mice
Format: in vivo, CD-1 mice
PROTOCOL_CONDITIONS: mouse, plasma, iv; male CD-1 mice, tail vein injection, 1 mg/kg; read-out: Clearance Cl
RECORDED_METRIC: clearance
For clarity, give the value followed by its unit.

Ask | Which clearance value is on record for `O=C(O)CCc1ccc2c(c1)nc(Nc1ccc(OC(F)(F)F)cc1)n2[C@@H]1CCCc2ccccc21` ?
Reply | 2.17 mL/min/kg
